conditions: 308.15 K; 101.33 kPa; Liquid
Collected mass density values appear next to each entry.

| MOLECULE | mass density [kg/m3] |
| --- | --- |
| N#CCCn1cc[n+](Cc2ccccc2)c1.[Cl-] [1-(2-cyanoethyl)-3-(phenylmethyl)-1H-imidazolium chloride] | 1197.33 |
| C=CC[n+]1ccn(CCC#N)c1.[Cl-] [3-allyl-1-(2-cyanoethyl)-1H-imidazolium chloride] | 1164.8 |
| N#CCCn1cc[n+](CCO)c1.[Cl-] [1-(2-cyanoethyl)-3-(2-hydroxyethyl)-1H-imidazolium chloride] | 1249.38 |
| CCCC[n+]1ccn(CCC#N)c1.[Cl-] [3-butyl-1-(2-cyanoethyl)-1H-imidazol-3-ium chloride] | 1122.93 |

----------
conditions: 343.15 K; 101.33 kPa; Liquid
MEASURED_ATTRIBUTE: mass density (kg/m3)

| COMPOUND | ENDPOINT_UNIT | EXPERIMENTAL_RESULT |
| --- | --- | --- |
| N#CCCn1cc[n+](Cc2ccccc2)c1.[Cl-] [1-(2-cyanoethyl)-3-(phenylmethyl)-1H-imidazolium chloride] | kg/m3 | 1176.88 |
| CCCC[n+]1ccn(CCC#N)c1.[Cl-] [3-butyl-1-(2-cyanoethyl)-1H-imidazol-3-ium chloride] | kg/m3 | 1100.72 |
| C=CC[n+]1ccn(CCC#N)c1.[Cl-] [3-allyl-1-(2-cyanoethyl)-1H-imidazolium chloride] | kg/m3 | 1144.22 |
| N#CCCn1cc[n+](CCO)c1.[Cl-] [1-(2-cyanoethyl)-3-(2-hydroxyethyl)-1H-imidazolium chloride] | kg/m3 | 1230.13 |
